Test system: HOP-62 NSCLC
Assay: NCI-60 one-dose screen, 48 h (100 = growth as untreated, 0 = no growth, -100 = all killed)
Conditions: 10 µM
Description: Growth inhibition of the HOP-62 human Non-Small Cell Lung tumor cell line is measured as a screen for anti-cancer activity. Cells are grown in 96 well plates and exposed to the test compound for 48 hours. Compounds are tested at a single concentration, which is 10^-5 M for most compounds. The reported endpoint is percent growth (GI% or GIPRCNT), where numbers from 0 - 100% represent growth inhibition, and numbers from -100% - 0 represent cell death. […]
This is part of a sample that, as a whole, favours compounds with a hit. Of some 83,000 tested, about 20% had one in any assay. The source made the active and inactive calls. The calls were made as follows: active = growth percent below 10; inactive = the rest.
// reported growth per item

Some solved entries appear below for comparison.
>>> observed_measurement("CC1(c2ccccc2)NC(=O)N(CC(=O)Nc2ccc(C(=O)/C=C/c3ccc(Cl)cc3)cc2)C1=O (stereo not drawn)")
"35.6% (inactive)"
>>> observed_measurement("O=C(NO)c1ccc(Cn2ccc3c(Nc4ccccc4)ncnc32)cc1")
"14.4% (inactive)"
>>> observed_measurement("CC1(c2ccccc2)NC(=O)N(CC(=O)Nc2ccc(C(=O)/C=C/C=C/c3ccccc3)cc2)C1=O (stereo not drawn)")
"77.2% (inactive)"
>>> observed_measurement("Oc1ccc(/C=C2\\CCCc3cc4ccc(O)cc4[o+]c32)c(O)c1")
"44.7% (inactive)"
>>> observed_measurement("O=C(c1ccc([N+](=O)[O-])c([N+](=O)[O-])c1O)n1[nH]c(=O)c2ccccc2c1=O")
"75.5% (inactive)"

Exercise: Fill blank: measured growth of the compound COC(=O)C(Cc1ccc(O)c(O)c1)NC(=O)C(CSC/C=C(\C)CCCC(C)CCCC(C)CCCC(C)C)NC(C)=O (stereo not drawn) is ____.
Solution: 26.5% (inactive)

Exercise: growth for O=c1[nH]n(C(=S)N/N=C/c2ccc(F)cc2)c(=O)c2ccccc12 ?
Solution: 80.3% (inactive)

Exercise: // lookup growth for CC1(C)CC[C@]23CC[C@]4(C)[C@H](CC[C@@H]5[C@@]6(C)CC[C@H](N)C(C)(C)[C@@H]6CC[C@]54C)[C@H]2[C@H]1OC3=O
Solution: -77.2% (active)
